Entry source: patent US20250353864A1

target-desc: EGFR L858R mutant (Homo sapiens (Human), UniProt P00533, L858R)
Sequence (P00533 25-1210 L858R): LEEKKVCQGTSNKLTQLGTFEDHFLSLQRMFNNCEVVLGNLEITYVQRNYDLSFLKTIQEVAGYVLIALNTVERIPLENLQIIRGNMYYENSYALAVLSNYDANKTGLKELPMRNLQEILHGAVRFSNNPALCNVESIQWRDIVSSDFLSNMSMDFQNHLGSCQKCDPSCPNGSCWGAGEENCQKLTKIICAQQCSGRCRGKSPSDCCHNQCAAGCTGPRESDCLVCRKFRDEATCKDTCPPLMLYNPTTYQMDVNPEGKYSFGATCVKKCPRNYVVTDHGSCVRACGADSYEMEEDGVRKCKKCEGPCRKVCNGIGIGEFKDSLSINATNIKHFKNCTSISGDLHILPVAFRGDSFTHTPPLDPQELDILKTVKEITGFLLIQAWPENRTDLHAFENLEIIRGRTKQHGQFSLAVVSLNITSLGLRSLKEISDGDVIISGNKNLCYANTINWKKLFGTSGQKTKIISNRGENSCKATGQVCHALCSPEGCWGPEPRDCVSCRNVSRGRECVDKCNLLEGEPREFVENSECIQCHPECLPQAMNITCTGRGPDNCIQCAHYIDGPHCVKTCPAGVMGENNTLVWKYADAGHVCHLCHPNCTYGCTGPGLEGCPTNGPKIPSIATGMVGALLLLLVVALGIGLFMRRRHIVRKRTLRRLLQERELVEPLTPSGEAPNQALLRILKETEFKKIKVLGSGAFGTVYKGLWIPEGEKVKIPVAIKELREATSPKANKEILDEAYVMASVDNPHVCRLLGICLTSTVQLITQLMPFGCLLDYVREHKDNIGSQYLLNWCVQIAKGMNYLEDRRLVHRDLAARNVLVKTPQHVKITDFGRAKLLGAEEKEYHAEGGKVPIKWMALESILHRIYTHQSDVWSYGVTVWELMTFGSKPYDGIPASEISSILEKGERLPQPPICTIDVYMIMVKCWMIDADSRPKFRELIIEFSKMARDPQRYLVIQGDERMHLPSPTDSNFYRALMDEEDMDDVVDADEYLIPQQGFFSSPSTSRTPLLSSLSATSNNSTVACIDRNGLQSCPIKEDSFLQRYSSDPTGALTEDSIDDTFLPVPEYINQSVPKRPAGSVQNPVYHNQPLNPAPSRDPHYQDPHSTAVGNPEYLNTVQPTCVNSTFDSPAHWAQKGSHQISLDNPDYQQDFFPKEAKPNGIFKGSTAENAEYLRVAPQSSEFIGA
assay-overview: HotSpot radiometric kinase assay, EGFR L858R mutant
reported-conditions: 10 μM ATP
A collection of molecules and their measured IC50
// note: answer is a bare numeric in nM

Past entries and their recorded results:
For the molecule CC(C)Oc1nn(CCO)c2c1/C=C/c1n[nH]c3ccc(cc13)-c1cnn(C)c1OC[C@H](C)N(C1CC1)C2 [Example 213] , give its measured IC50 value.
82.6

For the molecule CCOc1nn(CCO)c2c1/C=C/c1n[nH]c3ccc(cc13)-c1c(C)nn(C)c1OC[C@H](C)N(C1CC1)C2 [Example 205] , give its measured IC50 value.
16.3

For the molecule C[C@H](C#N)Oc1nn(CCO)c2c1/C=C/c1n[nH]c3cc(F)c(cc13)-c1cnn(C)c1O[C@@H](C)CN(C)C2 [Ex. 268] , give its measured IC50 value.
4.35

For the molecule CCN1Cc2c(c(OC(C)C)nn2CC(N)=O)/C=C/c2n[nH]c3ccc(cc23)-c2cnn(C)c2O[C@@H](C)C1 [Example 232] , give its measured IC50 value.
0.22

For the molecule CC(C)Oc1nn(CCO)c2c1/C=C/c1n[nH]c3ccc(cc13)-c1cnn(C)c1O[C@@H](CO)CN(C)C2 [Example 258] , give its measured IC50 value.
1.56

For the molecule CCOc1nn(CCO)c2c1/C=C/c1n[nH]c3ccc(cc13)-c1cnn(C)c1OC[C@H](CC)N(C)C2 [Example 259] , give its measured IC50 value.
66.5

---
For the molecule CCOc1nn([C@@H](C)CO)c2c1/C=C/c1n[nH]c3cc(F)c(cc13)-c1cnn(C)c1O[C@H](C)CN(C(C)C)C2 [Example 229] , give its measured IC50 value.
7.1

---

A collection of compounds and their measured pIC50
target-desc: EGFR L858R mutant (Homo sapiens (Human), UniProt P00533, L858R)
assay-overview: HotSpot radiometric kinase assay, EGFR L858R mutant
reported-conditions: 10 μM ATP
FYI, pIC50 means -log10 of a concentration in mol per litre.

Past entries and their recorded results:
Report the value of pIC50 obtained on EGFR L858R mutant (Homo sapiens (Human), UniProt P00533, L858R) for Cc1nn(C)c2c1/C=C/c1n[nH]c3ccc(cc13)-c1cnn(C)c1CN(C)[C@@H](C)CO2 [Example 106] .
7.46

Report the value of pIC50 obtained on EGFR L858R mutant (Homo sapiens (Human), UniProt P00533, L858R) for Cc1nn(CCO)c2c1/C=C/c1n[nH]c3ccc(cc13)-c1cnn(C)c1OCCCO2 [Ex. 22] .
8.35

Report the value of pIC50 obtained on EGFR L858R mutant (Homo sapiens (Human), UniProt P00533, L858R) for CC(C)Oc1nn(CCO)c2c1/C=C/c1n[nH]c3ccc(cc13)-c1cnn(C)c1O[C@H](C)CN(C(C)C)C2 [Example 193] .
7.44

---
Report the value of pIC50 obtained on EGFR L858R mutant (Homo sapiens (Human), UniProt P00533, L858R) for Cc1nn(C)c2c1/C=C/c1n[nH]c3ccc(cc13)-c1cnn(C)c1O[C@H]1CCCN(C2)C1 [Example 176] .
7.26

Report the value of pIC50 obtained on EGFR L858R mutant (Homo sapiens (Human), UniProt P00533, L858R) for CC(C)Oc1nn([C@@H](C)CO)c2c1/C=C/c1n[nH]c3cc(F)c(cc13)-c1cnn(C)c1O[C@@H](C)CN(C)C2 [Example 200] .
8.70

Report the value of pIC50 obtained on EGFR L858R mutant (Homo sapiens (Human), UniProt P00533, L858R) for Cc1c2c(nn1CCC(C)O)CN(C)C[C@H](C)Oc1c(cnn1C)-c1ccc3[nH]nc(c3c1)/C=C/2 (stereo partly shown) [Example 95] .
7.52

Report the value of pIC50 obtained on EGFR L858R mutant (Homo sapiens (Human), UniProt P00533, L858R) for CC(C)Oc1nn(CCO)c2c1/C=C/c1n[nH]c3ccc(cc13)-c1cnn(C)c1O[C@@H](C#N)CN(C)C2 [Example 264] .
6.31

---

target-desc: EGFR Δ746-750 mutant (Homo sapiens (Human), UniProt P00533, DEL746-750)
Sequence (P00533 other isoform, or with tags, fused parts or gaps del 1-668/del 746-750 limits assumed): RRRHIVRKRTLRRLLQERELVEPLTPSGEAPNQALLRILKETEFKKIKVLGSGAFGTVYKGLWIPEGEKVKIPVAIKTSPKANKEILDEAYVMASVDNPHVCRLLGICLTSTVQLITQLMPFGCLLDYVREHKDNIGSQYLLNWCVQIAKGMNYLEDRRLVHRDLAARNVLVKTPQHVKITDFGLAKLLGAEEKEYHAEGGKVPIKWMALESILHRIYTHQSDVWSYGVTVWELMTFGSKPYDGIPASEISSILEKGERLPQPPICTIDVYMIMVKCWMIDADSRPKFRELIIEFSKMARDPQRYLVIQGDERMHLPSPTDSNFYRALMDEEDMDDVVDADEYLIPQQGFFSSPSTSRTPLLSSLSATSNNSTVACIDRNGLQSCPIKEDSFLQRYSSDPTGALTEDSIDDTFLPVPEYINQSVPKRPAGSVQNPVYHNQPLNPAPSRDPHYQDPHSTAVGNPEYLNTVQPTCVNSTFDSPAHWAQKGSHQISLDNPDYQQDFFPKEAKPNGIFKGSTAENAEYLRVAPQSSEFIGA
assay-overview: HotSpot radiometric kinase assay, EGFR Δ746-750 mutant
reported-conditions: 10 μM ATP
A collection of compounds and their measured log10 IC50
Give log10 of IC50, with IC50 taken in nM.

For the compound `C[C@H](C#N)Oc1nn(CCO)c2c1/C=C/c1n[nH]c3cc(F)c(cc13)-c1cnn(C)c1O[C@@H](C)CN(C)C2` , give its measured log10 IC50 value.
0.30

For the compound `C[C@H]1CN(C)Cc2c(c(C#N)nn2C)/C=C/c2n[nH]c3ccc(cc23)-c2cnn(C)c2O1` , give its measured log10 IC50 value.
1.43

For the compound `Cc1c2c(nn1CCN1CCCC1)CN(C)C[C@@H](C)Oc1c(cnn1C)-c1ccc3[nH]nc(c3c1)/C=C/2` , give its measured log10 IC50 value.
1.61

For the compound Cc1nn(C)c2c1/C=C/c1n[nH]c3ccc(cc13)-c1cnn(C)c1CN(C)C[C@@H](C)O2 (single isomer, unassigned) , give its measured log10 IC50 value.
2.45

For the compound `Cc1c2c(nn1C)OCCCOc1c(cnn1C)-c1ccc3[nH]nc(c3c1)/C=C/2` , give its measured log10 IC50 value.
2.45

---
For the compound `Cc1c2c(nn1C[C@@H](C)O)CN(C)C[C@H](C)Oc1c(cnn1C)-c1ccc3[nH]nc(c3c1)/C=C/2` , give its measured log10 IC50 value.
1.53

---

A collection of compounds and their measured pIC50
target-desc: EGFR L858R mutant (Homo sapiens (Human), UniProt P00533, L858R)
assay-overview: HotSpot radiometric kinase assay, EGFR L858R mutant
reported-conditions: 10 μM ATP
FYI, pIC50 means -log10 of a concentration in mol per litre.

Past entries and their recorded results:
For the compound `Cc1nn(CCO)c2c1/C=C/c1n[nH]c3ccc(cc13)-c1c(C)nn(C)c1O[C@@H](C)CN(C)C2` , give its measured pIC50 value.
8.46

For the compound `C[C@H]1CN(C)Cc2c(c(O)nn2C)/C=C/c2n[nH]c3ccc(cc23)-c2cnn(C)c2O1` , give its measured pIC50 value.
7.37

For the compound `CC(C)Oc1nn(CCO)c2c1/C=C/c1n[nH]c3ccc(cc13)-c1cnn(C)c1O[C@H](C)[C@H]1CCCN1C2` , give its measured pIC50 value.
8.78

For the compound `Cc1nn(CCO)c2c1/C=C/c1n[nH]c3ccc(cc13)-c1cnn(C)c1CN(C)CCO2` , give its measured pIC50 value.
7.65

For the compound `Cc1c2c(nn1C)/C=C/c1n[nH]c3ccc(cc13)-c1cnn(C)c1O[C@@H](C)CN(C(C)C)C2` , give its measured pIC50 value.
7.38

For the compound `Cn1ncc2c1OCCN1CC[C@@H](Oc3ccccc3/C=C/c3n[nH]c4ccc-2cc34)C1=O` , give its measured pIC50 value.
7.15

Consider the record given below.
For the compound `C[C@H]1CN(C)Cc2c(c(OCC(F)(F)F)nn2CCO)/C=C/c2n[nH]c3cc(F)c(cc23)-c2cnn(C)c2O1` , give its measured pIC50 value.
6.40

---

target-desc: EGFR L858R/T790M mutant (Homo sapiens (Human), UniProt P00533, L858R/T790M)
Sequence (P00533 25-1210 T790M/L858R): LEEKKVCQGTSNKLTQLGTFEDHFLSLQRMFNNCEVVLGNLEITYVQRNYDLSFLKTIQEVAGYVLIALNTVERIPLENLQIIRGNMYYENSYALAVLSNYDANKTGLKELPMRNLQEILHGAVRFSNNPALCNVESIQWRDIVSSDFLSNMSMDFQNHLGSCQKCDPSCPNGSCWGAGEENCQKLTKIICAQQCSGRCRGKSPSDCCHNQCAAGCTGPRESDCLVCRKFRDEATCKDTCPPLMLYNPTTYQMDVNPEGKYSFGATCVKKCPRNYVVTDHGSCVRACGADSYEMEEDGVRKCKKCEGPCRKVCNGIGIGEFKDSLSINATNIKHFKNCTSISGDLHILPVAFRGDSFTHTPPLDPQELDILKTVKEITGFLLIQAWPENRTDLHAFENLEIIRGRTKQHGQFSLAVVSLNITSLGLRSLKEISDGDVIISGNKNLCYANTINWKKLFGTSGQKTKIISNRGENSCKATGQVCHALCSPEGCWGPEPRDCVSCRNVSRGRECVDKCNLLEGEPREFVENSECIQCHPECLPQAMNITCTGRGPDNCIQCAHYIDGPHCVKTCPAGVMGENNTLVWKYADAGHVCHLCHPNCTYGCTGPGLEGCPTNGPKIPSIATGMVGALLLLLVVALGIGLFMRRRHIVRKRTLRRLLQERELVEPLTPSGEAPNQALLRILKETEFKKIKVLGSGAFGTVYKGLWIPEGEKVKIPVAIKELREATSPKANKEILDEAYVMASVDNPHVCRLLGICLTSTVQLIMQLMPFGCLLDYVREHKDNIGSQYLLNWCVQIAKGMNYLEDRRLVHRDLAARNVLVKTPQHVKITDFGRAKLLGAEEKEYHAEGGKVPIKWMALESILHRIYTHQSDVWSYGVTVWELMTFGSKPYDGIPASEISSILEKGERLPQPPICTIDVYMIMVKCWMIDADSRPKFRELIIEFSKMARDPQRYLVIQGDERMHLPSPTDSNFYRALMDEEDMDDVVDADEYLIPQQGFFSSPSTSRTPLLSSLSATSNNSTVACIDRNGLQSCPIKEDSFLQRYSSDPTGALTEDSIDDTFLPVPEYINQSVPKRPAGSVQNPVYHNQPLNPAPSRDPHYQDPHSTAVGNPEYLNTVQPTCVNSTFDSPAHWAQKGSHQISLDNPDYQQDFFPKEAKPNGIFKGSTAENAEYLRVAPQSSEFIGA
assay-overview: HotSpot radiometric kinase assay, EGFR L858R/T790M mutant
reported-conditions: 10 μM ATP
endpoint: pIC50
FYI, pIC50 means -log10 of a concentration in mol per litre.

For the compound Cc1nn(C)c2c1/C=C/c1n[nH]c3ccc(cc13)-c1cnn(C)c1CN(C)C[C@@H](C)O2 (single isomer, unassigned) , give its measured pIC50 value.
8.28

---
For the compound CC(C)Oc1nn(CCO)c2c1/C=C/c1n[nH]c3ccc(cc13)-c1cnn(C)c1OCC(CF)N(C)C2 (stereo not shown) , give its measured pIC50 value.
8.92

For the compound `Cc1nn([C@H]2C[C@@H](N(C)CCN(C)C)C2)c2c1/C=C/c1n[nH]c3ccc(cc13)-c1cnn(C)c1OCCCO2` , give its measured pIC50 value.
7.94

For the compound `CC(C)Oc1nn(CCO)c2c1/C=C/c1n[nH]c3ccc(cc13)-c1cnn(C)c1O[C@@H](C)CN(C)[C@@H]2C` , give its measured pIC50 value.
9.21

---

target-desc: EGFR L858R/T790M mutant (Homo sapiens (Human), UniProt P00533, L858R/T790M)
assay-overview: HotSpot radiometric kinase assay, EGFR L858R/T790M mutant
reported-conditions: 10 μM ATP
A collection of compounds and their measured IC50

Past entries and their recorded results:
For the compound `Cc1nn(CCO)c2c1/C=C/c1n[nH]c3ccc(cc13)-c1cnn(C)c1O[C@@H](C)CN(C(C)C)C2` , give its measured IC50 value.
0.11 nM

For the compound `CC(C)Oc1nn(CCO)c2c1/C=C/c1n[nH]c3ccc(cc13)-c1cnn(C)c1O[C@@H](C)[C@H]1CCCN1C2` , give its measured IC50 value.
1.91 nM

For the compound `Cc1nn(C)c2c1-c1ccc3[nH]nc(c3c1)/C=C/c1c(OC(C)C)nn(CCO)c1CN(C(C)C)C[C@@H](C)O2` , give its measured IC50 value.
3.38 nM

For the compound `Cn1ncc2c1OCCCOc1nn3ccn(C)c(=O)c3c1/C=C/c1n[nH]c3ccc-2cc13` , give its measured IC50 value.
400 nM

For the compound Cc1nn([C@H]2COCC[C@@H]2O)c2c1/C=C/c1n[nH]c3ccc(cc13)-c1cnn(C)c1OCCCO2 (racemic) , give its measured IC50 value.
> 1000 nM

For the compound CN1CCN(c2ccc3c(c2)OC2CCN(CCOc4c(cnn4C)-c4ccc5[nH]nc(c5c4)/C=C/3)C2=O)CC1 (stereo in doubt) , give its measured IC50 value.
0.57 nM

---
For the compound `CN1CCC(c2ccc3c(c2)O[C@@H]2CCN(CCOc4c(cnn4C)-c4ccc5[nH]nc(c5c4)/C=C/3)C2=O)CC1` , give its measured IC50 value.
0.21 nM
